Consider the following compounds; for each one, report its Num Ave Size (nm).
assay: LNP average particle size and polydispersity by dynamic light scattering; assay type: physicochemical; conditions: LNP with the compound as amine lipid; Expt. 1; composition ratio (mol %) 50/9/38/3 for Cmpnd 49, 50/10/38.5/1.5 for the others
One number for each entry, in nm.

[[record]]
compound = "CCCCC/C=C\\C/C=C\\CCCCCCCC(=O)OCC(COC(=O)CCCCCCCC(=O)OCCCCCCCCCCC)OC(=O)CC(CCCCCCCC)OC(=O)NCCN(C)CC (stereo not shown) [Compound 62]"
val = 87.26

[[record]]
compound = "CCCCC/C=C\\C/C=C\\CCCCCCCC(=O)OCC(COC(=O)CCCCCCC/C=C\\C/C=C\\CCCCC)OC(=O)CCC(CCCCCCCC)OC(=O)NCCN(C)CC (stereo not shown) [Compound 34]"
val = 76.32

[[record]]
compound = "CCCCC/C=C\\C/C=C\\CCCCCCCC(=O)OCC(COC(=O)CCCCCCCC(=O)OCCCCCCCCCCC)OC(=O)CCCC(CCCCCCCC)OC(=O)NCCN(C)CC (stereo not shown) [Compound 64]"
val = 86.19


Please look at the items below and tell me Num Ave Size (nm) for each one, in order.
1. CCCCCCCCCCCOC(=O)CCCCCCCC(=O)OCC(COC(=O)CCCCCCCC(=O)OCCCCCCCCCCC)OC(=O)CCC(CCCCCCCC)OC(=O)NCCN(C)CC (stereo not shown) [Compound 60]
2. CCCCCCCCCCCOC(=O)CCCCCCCC(=O)OCC(COC(=O)CCCCCCCC(=O)OCCCCCCCCCCC)OC(=O)CCCC(CCCCCCCC)OC(=O)NCCN(C)CC (stereo not shown) [Compound 61]

Result block:
[79.57, 79.7]

For every record below, what is its Num Ave Size (nm)?
1. CCCCCCCCCCOC(=O)CCCCCCCC(=O)OCC(COC(=O)CCCCCCCC(=O)OCCCCCCCCCC)OC(=O)CCC(CCCCCCCC)OC(=O)NCCN(C)CC (stereo not shown) [Compound 57]
2. CCCCCCCCCCCOC(=O)CCCCCCCC(=O)OCC(COC(=O)CCCCCCCC(=O)OCCCCCCCCCCC)OC(=O)CC(CCCCCCCC)OC(=O)NCCN(C)CC (stereo not shown) [Compound 59]

Result block:
83.73
88.36

---

For each record, write down the corresponding Editing Mean % Indel.
test system: mouse B2M gene; assay: In vivo editing in mouse liver, LNP with Cas9 mRNA and sgRNA G650, NGS; settings: Table 3; guide G650; CD-1 female mice, 0.1 mpk i.v., liver at 6 or 7 days; Exp. 2-7

# annotated cases, reported Editing Mean % Indel shown
[[record]]
molecule = "CCCCC/C=C\\C/C=C\\CCCCCCCC(=O)OCC(COC(=O)CCCCCCC/C=C\\C/C=C\\CCCCC)OC(=O)CCC(CCCCCCCCCCCC)OC(=O)NCCN(CC)CC (stereo not shown)"
property = "Editing Mean % Indel"
val = "18.0%"

[[record]]
molecule = "CCCCCC/C=C\\COC(=O)CCCCCCCC(=O)OCC(COC(=O)CCCCCCCC(=O)OC/C=C\\CCCCCC)OC(=O)CCC(CCCCCCCCCCCC)OC(=O)NCCN(C)CC (stereo not shown)"
property = "Editing Mean % Indel"
val = "7.3%"

[[record]]
molecule = "CCCCC/C=C\\C/C=C\\CCCCCCCC(=O)OCC(COC(=O)CCCCCCC/C=C\\C/C=C\\CCCCC)OC(=O)CCC(CCCCCCCCCCCCCCCC)OC(=O)OCCCN1CCCC1 (stereo not shown)"
property = "Editing Mean % Indel"
val = "13.0%"

[[record]]
molecule = "CCCCC/C=C\\C/C=C\\CCCCCCCC(=O)OCC(COC(=O)CCCCCCC/C=C\\C/C=C\\CCCCC)OC(=O)CCC(CCCCCCCCCCCC)OC(=O)OC1CCN(CC)CC1 (stereo not shown)"
property = "Editing Mean % Indel"
val = "0.4%"

[[record]]
molecule = "CCCCC/C=C\\C/C=C\\CCCCCCCC(=O)OCC(COC(=O)CCCCCCC/C=C\\C/C=C\\CCCCC)OC(=O)CCC(CCCCCCCC)OC(=O)NCC1CCCN1C (stereo not shown)"
property = "Editing Mean % Indel"
val = "35.5%"

[[record]]
molecule = "CCCCC/C=C\\C/C=C\\CCCCCCCC(=O)OCC(COC(=O)CCCCCCC/C=C\\C/C=C\\CCCCC)OC(=O)CCC(CCCCCCCC)OC(=O)OCCCN(CC)CC (stereo not shown)"
property = "Editing Mean % Indel"
val = "11.6%"


Parameters: items (list). Returns: Editing Mean % Indel for each item.
1. CCCCC/C=C\C/C=C\CCCCCCCC(=O)OCC(COC(=O)CCCCCCC/C=C\C/C=C\CCCCC)OC(=O)CCC(CCCCCCCCCCCC)OC(=O)OCCCN1CCCC1 (stereo not shown)
2. CCCCC/C=C\C/C=C\CCCCCCCC(=O)OCC(COC(=O)CCCCCCC/C=C\C/C=C\CCCCC)OC(=O)CCC(CCCCCCCCCCCC)OC(=O)OCCCCN(CC)CC (stereo not shown)
3. CCCCC/C=C\C/C=C\CCCCCCCC(=O)OCC(COC(=O)CCCCCCC/C=C\C/C=C\CCCCC)OC(=O)CCC(CCCCCCCCCCCC)OC(=O)NCC1CCCN1C (stereo not shown)
4. CCCCC/C=C\C/C=C\CCCCCCCC(=O)OCC(COC(=O)CCCCCCC/C=C\C/C=C\CCCCC)OC(=O)CCC(CCCCCCCCCCCC)OC(=O)NCCN(C)C (stereo not shown)
5. CCCCC/C=C\C/C=C\CCCCCCCC(=O)OCC(COC(=O)CCCCCCC/C=C\C/C=C\CCCCC)OC(=O)CCC(CCCCCCCCCCCCCCCC)OC(=O)NCC1CCCN1C (stereo not shown)
6. CCCCC/C=C\C/C=C\CCCCCCCC(=O)OCC(COC(=O)CCCCCCC/C=C\C/C=C\CCCCC)OC(=O)CCC(CCCCCCCC)OC(=O)OCCCN(C)C (stereo not shown)
7. CCCCC/C=C\C/C=C\CCCCCCCC(=O)OCC(COC(=O)CCCCCCC/C=C\C/C=C\CCCCC)OC(=O)CCCC(CCCCCCCCCCCC)OC(=O)OCCCN(C)C (stereo not shown)
8. CCCCC/C=C\C/C=C\CCCCCCCC(=O)OCC(COC(=O)CCCCCCC/C=C\C/C=C\CCCCC)OC(=O)CCC(CCCCCCCC)OC(=O)OCCCN(C)CC (stereo not shown)

Result block:
1. 17.5%
2. 20.6%
3. 20.3%
4. 5.5%
5. 12.1%
6. 15.6%
7. 10.2%
8. 20.0%

Please state Editing Mean % Indel for every molecule in the list that follows.
1. CCCCCC/C=C\COC(=O)CCCCCCCC(=O)OCC(COC(=O)CCCCCCCC(=O)OC/C=C\CCCCCC)OC(=O)CCC(CCCCCCCCCCCC)OC(=O)OCCCN(C)C (stereo not shown)
2. CCCCC/C=C\C/C=C\CCCCCCCC(=O)OCC(COC(=O)CCCCCCC/C=C\C/C=C\CCCCC)OC(=O)CCC(CCCCCCCCCCCCCCCC)OC(=O)NCCN(C)CC (stereo not shown)
3. CCCCC/C=C\C/C=C\CCCCCCCC(=O)OCC(COC(=O)CCCCCCC/C=C\C/C=C\CCCCC)OC(=O)CCCC(CCCCCCCCCCCC)OC(=O)NCCN(C)CC (stereo not shown)

Result block:
["6.7%", "15.4%", "17.8%"]

Please report Editing Mean % Indel for every entry that follows.
1. CCCCC/C=C\C/C=C\CCCCCCCC(=O)OCC(COC(=O)CCCCCCC/C=C\C/C=C\CCCCC)OC(=O)CCCC(CCCCCCCCCCCC)OC(=O)OCCCN1CCCC1 (stereo not shown)
2. CCCCC/C=C\C/C=C\CCCCCCCC(=O)OCC(COC(=O)CCCCCCC/C=C\C/C=C\CCCCC)OC(=O)CCC(CCCCCCCCCCCC)OC(=O)NCCN(C)CC (stereo not shown)

Result block:
1: 13.0%; 2: 22.6%

Your task in this section: give Editing Mean % Indel for each listed record.
1. CCCCC/C=C\C/C=C\CCCCCCCC(=O)OCC(COC(=O)CCCCCCC/C=C\C/C=C\CCCCC)OC(=O)CCC(CCCCCCCCCCCC)OC(=O)OCCC1CCCN1C (stereo not shown)
2. CCCCC/C=C\C/C=C\CCCCCCCC(=O)OCC(COC(=O)CCCCCCC/C=C\C/C=C\CCCCC)OC(=O)CCC(CCCCCCCCCCCCCCCC)OC(=O)OCCCN(C)C (stereo not shown)
3. CCCCC/C=C\C/C=C\CCCCCCCC(=O)OCC(COC(=O)CCCCCCC/C=C\C/C=C\CCCCC)OC(=O)CCCC(CCCCCCCCCCCC)OC(=O)NCC1CCCN1C (stereo not shown)

Result block:
1. 10.1%
2. 12.3%
3. 3.6%

The measured values listed here are drawn from patent US12077483B2.
